Where these numbers come from: PubChem BioAssay AID1159580

Experiment: chemical genetic growth profiling, strain panel (AID 1159580);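 note: tested at 20 µM; growth read once vehicle control cultures reached saturation at 30 °C; 1 = growth at the plate median or of vehicle wells; lower values mean less growth of the strain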
Details: S. cerevisiae deletion strains, growth OD, locus YDR150W, strain NUM1, active compounds read low
Among all 5,500 compounds or so, about 2,000 (36%) were called active. Inconclusive results (about 18%) are left out. The list shows a part of the results.
Could you please report measured normalized growth for the items listed next?
Reply: number alone, nothing else.

Exam item: Answer with reported normalized growth of O=C(O)C1CCCNC1 (centres undefined)
Marked response: 1.01

Exam item: Answer with reported normalized growth of C[C@]12C=CC(=O)C=C1CCC1C2[C@@H](O)C[C@@]2(C)C1CC[C@]2(O)C(=O)CO (some centres undefined)
Marked response: 0.998

Exam item: Answer with reported normalized growth of Clc1cnc(Oc2ccc(Oc3ncc(Cl)cc3Cl)cc2)c(Cl)c1
Marked response: 1.01

Exam item: Answer with reported normalized growth of Clc1ccc(C(c2ccccc2Cl)C(Cl)Cl)cc1 (centres undefined)
Marked response: 1.02

Exam item: Answer with reported normalized growth of O/N=C(/CNC(c1ccccc1)(c1ccccc1)c1ccccc1)c1ccccc1
Marked response: 0.9

Exam item: Answer with reported normalized growth of O=[N+]([O-])c1ccc(C(O)C(O)CO)cc1 (centres undefined)
Marked response: 1

Exam item: Answer with reported normalized growth of O=C1NC2(CCN(Cc3ccccc3)CC2)Oc2ccccc21
Marked response: 0.993

Exam item: Answer with reported normalized growth of C=C[C@@]1(C)CC(=O)[C@@]2(O)[C@](C)(O1)[C@@H](OC(C)=O)[C@@H](O)C1C(C)(C)CC[C@H](O)[C@@]12C (some centres undefined)
Marked response: 0.972

Exam item: Answer with reported normalized growth of COC(=O)[C@@H]1OC(=O)C2OC23[C@@]1(C)CCC1[C@]2(C)C(C[C@@H](O)[C@]13C)C(C)(C)[C@H](OC(C)=O)C[C@@H]2OC(C)=O (some centres undefined)
Marked response: 1.01

Exam item: Answer with reported normalized growth of CC1(C)C(=O)N(CCN2CCC(C(=O)c3ccc(F)cc3)CC2)c2ccccc21
Marked response: 0.998

Exam item: Answer with reported normalized growth of CCOC(=O)c1cnn(-c2ccc(N)cc2)c1C(F)(F)F
Marked response: 1.02

Exam item: Answer with reported normalized growth of Cc1nn(-c2ccccc2)nc1-c1nnc(-c2ccc(Cl)cc2)o1
Marked response: 1

Exam item: Answer with reported normalized growth of CNc1ccc(C(=O)CC(O)CCC(C)C2OC(=O)CC(O)CC(=O)CC(O)CC(O)CC(O)CC(O)CC3(O)CC(O)C(C(=O)OC)C(CC(OC4OC(C)C(O)C(N)C4O)/C=C/C=C/C=C/C=C/C=C/C=C/C=C/C2C)O3)cc1 (centres undefined)
Marked response: 0.0603

Exam item: Answer with reported normalized growth of CCOC(=O)c1cnn(-c2ccc(F)cc2)c1N
Marked response: 0.866

Exam item: Answer with reported normalized growth of O=C1C2C3C=CC(C3)C2C(=O)N1c1ccc(F)c(F)c1 (centres undefined)
Marked response: 0.997

Exam item: Answer with reported normalized growth of CC(C)/C(O)=C1/C(=O)O[C@@H](c2ccoc2)[C@]2(C)C(O)[C@@H](O)[C@@]34OC5(C)OC67CC(C)(C(O)[C@]6(O)[C@@H](O)[C@]3(O5)C12)[C@H](CC(=O)O)[C@]74C (some centres undefined)
Marked response: 0.965

Exam item: Answer with reported normalized growth of COP(=S)(OC)Oc1ccc([N+](=O)[O-])cc1
Marked response: 0.975

Exam item: Answer with reported normalized growth of CCCn1c(=O)c2[nH]c(C3CCCC3)nc2n(CCC)c1=O
Marked response: 0.968

Exam item: Answer with reported normalized growth of FC(F)(F)Oc1ccccc1-c1nnc(-c2ccc(Cl)cc2)o1
Marked response: 0.912
